Study target: T1, PUF4 RNA-binding domain (Saccharomyces cerevisiae, UniProt P25339 537-888)
T1 sequence: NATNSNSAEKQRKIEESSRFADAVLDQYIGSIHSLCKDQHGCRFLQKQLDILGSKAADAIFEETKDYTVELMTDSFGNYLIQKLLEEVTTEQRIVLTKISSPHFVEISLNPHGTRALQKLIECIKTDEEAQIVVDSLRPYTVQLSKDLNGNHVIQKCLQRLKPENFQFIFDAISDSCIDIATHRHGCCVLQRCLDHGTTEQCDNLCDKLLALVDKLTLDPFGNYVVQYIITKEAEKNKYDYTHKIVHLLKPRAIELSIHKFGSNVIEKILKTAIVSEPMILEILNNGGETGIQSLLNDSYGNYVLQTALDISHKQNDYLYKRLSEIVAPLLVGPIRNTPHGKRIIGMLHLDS
Test protocol: Mg; RNA-MaP; 20 mM Na-HEPES pH 7.4, 30 mM KOAc, 0.75 mM MgCl2, 0.1% Tween-20, 5% glycerol, 0.1 mg/mL BSA, 2 mM DTT; 25 C; 0.0125-409.6 nM protein
Recorded conditions: tags: N-His6-TEV cleaved; C-SNAP kept, Cy3B-labelled; label: tethered on chip by stalled RNA polymerase
Reported endpoint: pKd
Remember, pKd is on a log scale: it is -log10 of the molar concentration.

Quick one: pKd for Ic_S2_P4E.1_K4.1_C4.1_H4.1_A4.1_[T5C]_[A6T]_[T7G]_F4.1_[T8C]_[A9C]_T4.1 (ssRNA) RNA: UUUGAUUAAUAUGAUAUCGUUCUUUCUUGUACUGCCUUCUUUCUCGAUAUCAUAUUAAUCUUU ? 6.33

Quick one: pKd for UCUCUUCGUAUAUUAUCUCUU (ssRNA) [Ia_S1_P4E.1_K4.1_C4.1_H4.1_[T1C]_A4.1_F4.1_T4.1] ? 7.68

Look up pKd: Ic_S2_P4E.1_K4.1_C4.1_H4.1_A4.1_[T7C]_F4.1_[T8C]_T4.1 (ssRNA) RNA: UUUGAUUAAUAUGAUAUCGUUCUUUCUUGUAUACCAUUCUUUCUCGAUAUCAUAUUAAUCUUU 7.92

Quick one: pKd for UCUCUUUGUACGGCAUCUCUU (ssRNA) [Ic_S1_P4E.1_K4.1_C4.1_H4.1_A4.1_[T5C]_[A6G]_[T7G]_F4.1_[T8C]_T4.1] ? 6.20

Requested field: pKd. Item: UCUCUUUGUAUAUUUUCUCUU (ssRNA) [Ia_S1_P4E.1_K4.1_C4.1_H4.1_A4.1_F4.1_[A9T]_T4.1] 8.35

Which measured pKd value corresponds to Ic_S4_P4E.1_K4.1_C4.1_H4.1_A4.1_[A6G]_F4.1_[T8C]_[A9C]_T4.1 (ssRNA) RNA: UUUGACAACUGAUCGUUCUUUCUUGUAUGUCCUUCUUUCUCGAUCAGUUGUCUUU ? 7.44
